# experiment notes: Plasma PK of brensocatib, BID vs QD oral dosing, Sprague Dawley rats
# Format: in vivo
# measurement setup: both sexes, Sprague-Dawley, rat, SD rats, oral QD, 30 mg/kg/day, first 24 h, read-out: AUC(0–24)
property: AUC(0-t)

>>> reported_value("Cn1c(=O)oc2ccc(-c3ccc(C[C@@H](C#N)NC(=O)[C@@H]4CNCCCO4)cc3)cc21")
"248 µM·h"

----------
# experiment notes: Plasma PK of brensocatib, BID vs QD oral dosing, Sprague Dawley rats
# Assay type: in vivo
# measurement setup: both sexes, Sprague-Dawley, rat, po, 20 mg/kg/day, SD rats, oral BID, 20 mg/kg/day, morning dose, read-out: t1/2, AM dose (converted)
property: half-life

>>> reported_value("Cn1c(=O)oc2ccc(-c3ccc(C[C@@H](C#N)NC(=O)[C@@H]4CNCCCO4)cc3)cc21")
"14.1 h"
